The origin of these recorded values is paper PMC3499368.

Target: estrogen receptor ligand binding domain (Platynereis dumerilii)
Sequence (C0IR13 197-482): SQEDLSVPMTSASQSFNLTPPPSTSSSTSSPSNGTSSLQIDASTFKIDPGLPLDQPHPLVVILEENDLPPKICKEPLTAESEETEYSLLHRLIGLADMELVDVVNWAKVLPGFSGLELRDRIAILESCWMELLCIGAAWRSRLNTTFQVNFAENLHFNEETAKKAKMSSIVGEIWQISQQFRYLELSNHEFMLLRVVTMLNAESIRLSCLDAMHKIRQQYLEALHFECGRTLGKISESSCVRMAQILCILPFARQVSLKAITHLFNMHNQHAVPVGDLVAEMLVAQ
Assay: activation of the estrogen receptor ligand binding domain of Platynereis dumerilii
Here the recorded EC50 is given for each entry.
parameter: EC50

compound	subjectOfTest	result
CC(=O)[C@H]1CCC2C3CCc4cc(O)ccc4C3CC[C@@]21C (some centres unmarked) [NPT]	estrogen receptor ligand binding domain (Platynereis dumerilii)	1.2 nM
C[C@]12CC[C@@H]3c4ccc(O)cc4CC[C@H]3[C@@H]1CC[C@@H]2O [estradiol]	estrogen receptor ligand binding domain (Platynereis dumerilii)	12 nM

###

target: human mineralocorticoid receptor (hMR) (Homo sapiens, UniProt P08235); assay: luciferase reporter assay, human MR LBD
Sequence (P08235 736-984): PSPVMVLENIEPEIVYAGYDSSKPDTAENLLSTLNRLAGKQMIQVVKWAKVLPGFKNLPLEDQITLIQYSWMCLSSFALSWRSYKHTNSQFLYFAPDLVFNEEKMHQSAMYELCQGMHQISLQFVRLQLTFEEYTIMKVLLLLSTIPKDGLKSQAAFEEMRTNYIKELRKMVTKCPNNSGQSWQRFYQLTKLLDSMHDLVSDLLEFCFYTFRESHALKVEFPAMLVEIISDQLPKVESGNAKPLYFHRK
parameter: EC50 (nM)

smilesData	parameter	displayUnit	numericValue
C[C@]12CCC(=O)C=C1CC[C@@H]1[C@@H]2[C@@H](O)C[C@@]2(C)[C@H]1CC[C@]2(O)C(=O)CO	EC50	nM	37

###

Test system: AncSR2-LBD
Assay: luciferase reporter gene assay, Gal4-DBD fusion of AncSR2-LBD in CHO-K1 cells, activation
Type: cell-based
Details: AncSR2, Table S5 section d; pairs H1/H2: 13/6, 17/8, 15/9, 16/10, 19/23; listed as given under Hormone 1
Excerpt: To experimentally test these hypotheses, we synthesized cDNAs for the AncSR1 and AncSR2 LBD protein sequences, expressed them as Gal4-DBD fusion constructs, and characterized their sensitivity to hormones using luciferase reporter gene assays. […] It was unresponsive to a broad array of androgens, progestagens, and corticosteroids, as well as cholesterol (Figure 2A, Figure S3). […]
Here the recorded Ratio H1/H2 of EC50, preference for 17-acetyl vs. 17-hydroxy group is given for each entry.
parameter: Ratio H1/H2 of EC50, preference for 17-acetyl vs. 17-hydroxy group

compound	subjectOfTest	numericValue
C[C@]12CC[C@H]3[C@@H](CC=C4C[C@@H](O)CC[C@@]43C)[C@@H]1CC[C@@H]2O	AncSR2-LBD	21.84
C[C@]12CC[C@H]3[C@@H](CCC4=C[C@@H](O)CC[C@@]43C)[C@@H]1CC[C@@H]2O	AncSR2-LBD	119.09
CC12CCC3C4CCC(=O)C=C4CCC3C1CCC2O (stereo not shown)	AncSR2-LBD	43.13
C[C@]12CC[C@H]3[C@@H](CCC4=CC(=O)CC[C@@]43C)[C@@H]1CC[C@@H]2O	AncSR2-LBD	21.09

###

Items are presented alongside their recorded EC50.
system: AncSR1_Alt5; test: luciferase reporter assay, alternative reconstruction AncSR1_Alt5; format: cell-based; settings: Alt5, Fig. S5B

smilesData	EC50, µM
C[C@]12CC[C@@H]3c4ccc(O)cc4CC[C@H]3[C@@H]1C[C@@H](O)[C@@H]2O	0.39
C[C@]12CC[C@@H]3c4ccc(O)cc4CC[C@H]3[C@@H]1CCC2=O	0.223
C[C@]12CC[C@@H]3c4ccc(O)cc4CC[C@H]3[C@@H]1CC[C@@H]2O	0.094
